The reader will find reported OD492 values listed item by item below.
Target: T1, HCV Core1-169 (HCV-1, UniProt P26664 1-169)
T1 construct: also called Solid Phase HCV Core
T1 sequence: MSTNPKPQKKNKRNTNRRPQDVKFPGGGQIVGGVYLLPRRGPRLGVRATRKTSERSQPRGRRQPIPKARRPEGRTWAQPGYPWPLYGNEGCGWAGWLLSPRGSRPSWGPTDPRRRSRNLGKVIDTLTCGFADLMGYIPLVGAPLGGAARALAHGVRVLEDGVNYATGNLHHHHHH
Assay: sandwich EIA, NC capture mAb; note: test concentration or dose not given here
# unit: OD | format: bare number

Examples from the recorded data:
# input Looking for the measured OD492 of HCV 208A-557 (antibody, V domains shown) VH: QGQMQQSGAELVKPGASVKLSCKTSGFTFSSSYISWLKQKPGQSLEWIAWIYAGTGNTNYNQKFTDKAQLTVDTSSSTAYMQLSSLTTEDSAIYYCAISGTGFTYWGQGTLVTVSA VL: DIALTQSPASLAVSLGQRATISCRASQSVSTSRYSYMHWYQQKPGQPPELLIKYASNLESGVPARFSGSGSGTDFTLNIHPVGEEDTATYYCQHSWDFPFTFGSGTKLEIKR , can you help?
# output 0.18

# input Looking for the measured OD492 of HCV 208A-692 (antibody, V domains shown) VH: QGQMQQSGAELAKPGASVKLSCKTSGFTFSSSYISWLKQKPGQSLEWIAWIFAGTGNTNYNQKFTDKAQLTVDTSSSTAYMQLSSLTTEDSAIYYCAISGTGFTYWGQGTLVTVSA VL: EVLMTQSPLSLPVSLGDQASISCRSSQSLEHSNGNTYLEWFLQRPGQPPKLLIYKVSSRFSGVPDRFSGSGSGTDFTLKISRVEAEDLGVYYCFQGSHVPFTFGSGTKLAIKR , can you help?
# output 0.4

Now for the binder whose OD492 we want.
# input Looking for the measured OD492 of HCV 208B-612 (antibody, V domains shown) VH: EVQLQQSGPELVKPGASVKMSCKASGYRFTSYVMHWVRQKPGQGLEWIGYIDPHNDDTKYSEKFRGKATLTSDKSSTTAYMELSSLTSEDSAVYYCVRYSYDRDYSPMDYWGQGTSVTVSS VL: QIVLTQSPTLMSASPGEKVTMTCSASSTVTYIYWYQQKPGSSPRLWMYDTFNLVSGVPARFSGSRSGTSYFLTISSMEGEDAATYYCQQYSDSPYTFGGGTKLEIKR , can you help?
# output 0.21
